System: U2OS
assay-name: Multiplex assay against U2OS
Assay type: toxicity, cell-based
condition-description: human, 24 h, 10 µM, compound concentration 10 uM, replicate 1
Assignment: determine reported Population Apoptotic (%) for the given compounds.
Write the number in % without appending the unit.

Looking up Cc1nc(N2CC[C@H](O)C2)ncc1-c1cc(C(F)(F)F)cc2[nH]ncc12 , I see its Population Apoptotic (%) listed as 27

Given item C=CC(=O)Nc1cccc(Oc2nc(Nc3ccc(N4CCN(C)CC4)cc3OC)ncc2Cl)c1 , the value recorded as its Population Apoptotic (%) is 62

Entry under test: COc1cc2ncn(-c3cc(OCc4ccccc4C(F)(F)F)c(C(N)=O)s3)c2cc1OC [GW843682X] . Its Population Apoptotic (%) was 51

Documented Population Apoptotic (%) of O=c1[nH]c2ccccc2n1C1CCN(Cc2ccc(-c3[nH]c4cc5ncnc5cc4nc3-c3ccccc3)cc2)CC1 : 55

Value of Population Apoptotic (%) reported for the compound CC(C)Oc1ccccc1C(=O)Nc1ccccc1C(=O)Nc1cccc(S(=O)(=O)C(F)(F)F)c1 is 74

Population Apoptotic (%) measured on CC(C)NC(=O)N1CC[C@H](NC2=Nc3cc(F)ccc3N(CC(F)F)c3ccc(Cl)cc32)C1 = 56

The compound listed as Cl.O=C(O)c1cc(-c2ccc(C3CCNCC3)cc2)c2ccc(-c3ccc(C(F)(F)F)cc3)cc2c1 shows Population Apoptotic (%) equal to 41

// field: Population Apoptotic (%); key: C[C@]12CC[C@@H]3c4ccc(O)cc4CC[C@H]3[C@@H]1CC[C@@H]2O ; value = 21

Looking up CC(C)OC(=O)N1CCC(Oc2ncnc3c2cnn3-c2ccc(S(C)(=O)=O)cc2F)CC1 , I see its Population Apoptotic (%) listed as 20

The measured Population Apoptotic (%) associated with CC(C)c1noc(N2CCC(COc3ccc(-c4ccc(S(C)(=O)=O)cc4)nc3)CC2)n1 reads 40

Sample COc1cc(Nc2nccc(-c3cnn4nc(OC)ccc34)n2)cc(C(F)(F)F)c1 ; Population Apoptotic (%) observed: 65

###

I'd appreciate it if you could supply Population Normal (%) values for the items below.
Test system: U2OS
assay-name: Multiplex assay against U2OS
Type: toxicity, cell-based
condition-description: human, 24 h, 1 µM, compound concentration 1 uM, replicate 2
The answer is to be given in %; state only the numeric part.

Population Normal (%) reported for this compound Cc1ccccc1C(c1ccccc1C)N1C2CCC1CC(O)(c1ccccc1)C2 (stereo not drawn) : 95

COC(=O)C1=C(C)NC(C)=C(C(=O)OCCCN2CCC(c3ccccc3)(c3ccccc3)CC2)[C@H]1c1cccc([N+](=O)[O-])c1 [NIGULDIPINE] yielded Population Normal (%) of 94

The reported value for CC(C)CC(=O)Nc1[nH]nc2c1CN(C(=O)C1CCN(C)CC1)C2(C)C [PHA-793887] in terms of Population Normal (%) is 97

// sample COc1cc(Nc2nccc(-c3cnn4nc(OC)ccc34)n2)cc(C(F)(F)F)c1 , its Population Normal (%) was 97

Sure, the documented Population Normal (%) for CCOC(=O)Nc1cc(-c2ccc(C)c(NS(C)(=O)=O)c2)nn2c(C)nnc12 is 92

The compound O=C(c1cc2c(cc1F)OC(c1ccc(F)cc1)(c1ccc(Cl)cc1Cl)O2)N1CCOCC1 (stereo not drawn) showed Population Normal (%) equal to 89

For Cc1cccc(CN2CCN(C(c3ccccc3)c3ccc(Cl)cc3)CC2)c1.Cl.Cl (stereo not drawn) the compound record lists Population Normal (%) as 89

Form field Population Normal (%), entry Cc1ccc2c(c1)c1c(n2CCc2ccc(C)nc2)CCN(C)C1 [LATREPIRDINE] : 86

The reported value for CC(C)OC(=O)N1CCC(Oc2ncnc3c2cnn3-c2ccc(S(C)(=O)=O)cc2F)CC1 in terms of Population Normal (%) is 97

Summary for this compound, CN1CCN(Cc2ccc(Nc3ncc(Cl)c(Nc4ccccc4S(=O)(=O)N(C)C)n3)cc2)CC1 [DUBERMATINIB] : Population Normal (%) is 93

For record CCc1nn(CCCN2CCN(c3cccc(Cl)c3)CC2)c(=O)n1CCOc1ccccc1.Cl [NEFAZODONE HYDROCHLORIDE] the listed Population Normal (%) is 97

Kindly note the recorded Population Normal (%) for CC(C)(C)NC[C@H](O)COc1nsnc1N1CCOCC1 [TIMOLOL] , which is 94

The value of Population Normal (%) measured for the compound COc1ccccc1CN[C@H]1C2CCN(CC2)[C@H]1C(c1ccccc1)c1ccccc1 [CP-96345] turned out to be 97

So for O=c1cc(N2CCOCC2)oc2c(-c3cccc4c3sc3ccccc34)cccc12 , the logged Population Normal (%) turned out to be 93

According to the records, this compound COc1cc2ncn(-c3cc(OCc4ccccc4C(F)(F)F)c(C(N)=O)s3)c2cc1OC [GW843682X] displays Population Normal (%) of 94

Per the record, Cl.O=C(O)c1cc(-c2ccc(C3CCNCC3)cc2)c2ccc(-c3ccc(C(F)(F)F)cc3)cc2c1 has Population Normal (%) of 96

Population Normal (%) reported for this compound CNC(=O)Nc1ccc(-c2nc(N3CC4CCC(C3)O4)c3cnn(C4CCC5(CC4)OCCO5)c3n2)cc1 : 81

Reported Population Normal (%) for CC(C)Oc1ccccc1C(=O)Nc1ccccc1C(=O)Nc1cccc(S(=O)(=O)C(F)(F)F)c1 was 92

###

Tested on: Fibroblast
assay-name: Multiplex assay against human fibroblast
Assay type: toxicity, cell-based
condition-description: 24 h, 10 µM, compound concentration 10 uM, replicate 2
What Population Normal (%) was measured for each of the following?
Enter your answer as a number in %; do not include the unit.

Recorded Population Normal (%) (molecule COc1ccccc1CN[C@H]1C2CCN(CC2)[C@H]1C(c1ccccc1)c1ccccc1 ): 98

// Population Normal (%) lookup, molecule = CCc1nn(CCCN2CCN(c3cccc(Cl)c3)CC2)c(=O)n1CCOc1ccccc1.Cl [NEFAZODONE HYDROCHLORIDE] , result: 98

// field: Population Normal (%); key: CCc1ccc(OCc2ccccc2C(=O)Nc2ccc3nc(C)cc(N)c3c2)cc1.Cl ; value = 68

Entry CNC(=O)Nc1ccc(-c2nc(N3CC4CCC(C3)O4)c3cnn(C4CCC5(CC4)OCCO5)c3n2)cc1 ; Population Normal (%) = 93

The recorded Population Normal (%) for COc1cc(Nc2nccc(-c3cnn4nc(OC)ccc34)n2)cc(C(F)(F)F)c1 is 70

// Population Normal (%) lookup, molecule = CC1=C(C(=O)Nc2cc3cn[nH]c3cc2F)C(c2ccc(C(F)(F)F)cc2)CC(=O)N1 (stereo not drawn) , result: 93

response.value for CCCSc1nc(N[C@@H]2C[C@H]2c2ccc(F)c(F)c2)c2nnn([C@@H]3C[C@H](OCCO)[C@@H](O)[C@H]3O)c2n1 (field: Population Normal (%)) = 91

Form: molecule = CC(C)(C)NC[C@H](O)COc1nsnc1N1CCOCC1 ; Population Normal (%) = 97

###

System: Fibroblast
assay-name: Incucyte cell viability with human fibroblast; note: filed as whole numbers so only -1 and 0 and 1 occur
Type: toxicity, cell-based
condition-description: 18 h, 10 µM, compound concentration 10 uM, replicate number 2, timepoint 18 hours
assay-endpoint: Growth Rate
Reply: number alone, nothing else.

# lookup: Cc1csc(NC(=O)c2cc(F)cc(Oc3cncnc3)c2)n1 on Fibroblast, Growth Rate = 0

Response field Growth Rate (Fibroblast) for item Cc1cccc(CN2CCN(C(c3ccccc3)c3ccc(Cl)cc3)CC2)c1.Cl.Cl (stereo not drawn) : 0

Item CCOc1cn(-c2ccc(F)cc2C)nc1C(=O)Nc1ccc(Oc2ccnc3cc(OC)c(OC)cc23)c(F)c1 ; assay system Fibroblast; Growth Rate reported as 1

The compound COC(=O)C(Cc1ccc(OCCn2c(=O)sc3cc(C(=O)c4ccccc4)ccc32)cc1)C(=O)OC on Fibroblast: Growth Rate was 0

Response field Growth Rate (Fibroblast) for item Cl.O=C(O)c1cc(-c2ccc(C3CCNCC3)cc2)c2ccc(-c3ccc(C(F)(F)F)cc3)cc2c1 : 0

Growth Rate for Fibroblast with input COc1ccc(S(=O)(=O)c2cc(OC)ccc2S(=O)(=O)c2ccc([C@H](C)NS(C)(=O)=O)cc2)cc1 equals 1

Growth Rate value, target or system Fibroblast, for Cc1cc([C@@H](C)Nc2ccccc2C(=O)O)c2nc(N3CCOCC3)cc(=O)n2c1 [AZD-6482] : 1

Cl.Cl.Cl.c1ccc(N2CCN(Cc3nc4ccccc4[nH]3)CC2)nc1 tested on Fibroblast gave Growth Rate: 1

###

Exercise: for every item that follows, state its recorded Population Apoptotic (%).
Tested on: Fibroblast
assay-name: Multiplex assay against human fibroblast
Type: toxicity, cell-based
condition-description: 12 h, 1 µM, compound concentration 1 uM, replicate 2

The compound listed as CC1=C(C(=O)Nc2cc3cn[nH]c3cc2F)C(c2ccc(C(F)(F)F)cc2)CC(=O)N1 (stereo not drawn) has a reported Population Apoptotic (%) of 50%

Kindly note the recorded Population Apoptotic (%) for O=C(c1cc2c(cc1F)OC(c1ccc(F)cc1)(c1ccc(Cl)cc1Cl)O2)N1CCOCC1 (stereo not drawn) , which is 50%

// Population Apoptotic (%) value for Cc1c[nH]c2nccc(Oc3c(F)cc(Nc4cc(Cl)nc(N)n4)cc3F)c12 [BAY-549] : 44%

// field: Population Apoptotic (%); key: COc1cc2ncn(-c3cc(OCc4ccccc4C(F)(F)F)c(C(N)=O)s3)c2cc1OC [GW843682X] ; value = 50%

The value of Population Apoptotic (%) measured for the compound CC(C)c1noc(N2CCC(COc3ccc(-c4ccc(S(C)(=O)=O)cc4)nc3)CC2)n1 [GSK-1292263] turned out to be 50%

Form field Population Apoptotic (%), entry Cc1cccc(CN2CCN(C(c3ccccc3)c3ccc(Cl)cc3)CC2)c1.Cl.Cl (stereo not drawn) : 0%

# compound COc1ccc(-c2ccc3ncc4c(c3c2)n(-c2ccc(N3CCNCC3)c(C(F)(F)F)c2)c(=O)n4C)cn1.O=C(O)/C=C\C(=O)O [BGT-226] ; its Population Apoptotic (%) = 81%

response.value for CC(C)OC(=O)N1CCC(Oc2ncnc3c2cnn3-c2ccc(S(C)(=O)=O)cc2F)CC1 (field: Population Apoptotic (%)) = 33%
